Sourced from patent US20140135357A1

# Assay overview: clinical
# Condition summary: human, in vivo, 1.3 mg/m2, Cmax
Metric name: Cmax (ng/mL)
Numbers only here, please. The scale is ng/mL.

// lookup Cmax for CC[C@@]1(O)C(=O)OCc2c1cc1n(c2=O)Cc2cc3c(CN(C)C)c(O)ccc3nc2-1 [Topotecan, reference compound]
1.06

---

# Assay overview: clinical
# Condition summary: human, in vivo, 40 mg/m2, Cmax
Metric name: Cmax (ng/mL)
Numbers only; they are read as ng/mL.

Cmax for CC[C@@]1(OC(=O)[C@H](C)O)C(=O)OCc2c1cc1n(c2=O)Cc2cc3c(CN(C)C)c(O)ccc3nc2-1 [TLC-U2, S,S-topotecan lactate] ?
52.5
